Target: GlcNAc(a1-4)Gal(b1-4)GlcNAc(b1-3)Gal(b1-4)GlcNAc
Assay: glycan array binding signal (z-score within array); higher = stronger binding
Conditions: glycan notation: IUPAC condensed, linker removed
This excerpt belongs to a sample that is enriched for the strongest signals.
Quick list: glycan array binding signal (z-score) per entry.
Reply: number alone, nothing else.

Before answering, review these 5 worked examples.
Request: What value of glycan array binding signal (z-score) has been reported for the following binder? Neuropilin-1 (Homo sapiens), O14786 (protein) FKCMEALGMESGEIHSDQITASSQYSTNWSAERSRLNYPENGWTPGEDSYREWIQVDLGLLRFVTAVGTQGAISKETKKKYYVKTYKIDVSSNGEDWITIKEGNKPVLFQGNTNPTDVVVAVFPKPLITRFVRIKPATWETGISMRFEVYGCKITDYPCSGMLGMVSGLISDSQITSSNQGDRNWMPENIRLVTSRSGWALPPAPHSYINEWLQIDLGEEKIVRGIIIQGGKHRENKVFMRKFKIGYSNNGSDWKMIMDDSKRKAKSFEGNNNYDTPELRTFPALSTRFIRIYPERATHGGLGLRMELLGCEVE
Result: -0.004

Request: What value of glycan array binding signal (z-score) has been reported for the following binder? CD72 ectodomain (Homo sapiens), P21854 (protein) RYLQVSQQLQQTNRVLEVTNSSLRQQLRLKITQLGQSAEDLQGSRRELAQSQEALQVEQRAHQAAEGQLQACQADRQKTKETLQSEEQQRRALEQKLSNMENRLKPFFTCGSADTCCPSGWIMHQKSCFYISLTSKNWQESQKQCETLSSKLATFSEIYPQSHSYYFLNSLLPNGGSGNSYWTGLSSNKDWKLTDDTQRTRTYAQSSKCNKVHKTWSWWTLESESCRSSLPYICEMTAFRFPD
Result: 4.25

Request: What value of glycan array binding signal (z-score) has been reported for the following binder? HPA (Helix pomatia), Q575S3 (protein) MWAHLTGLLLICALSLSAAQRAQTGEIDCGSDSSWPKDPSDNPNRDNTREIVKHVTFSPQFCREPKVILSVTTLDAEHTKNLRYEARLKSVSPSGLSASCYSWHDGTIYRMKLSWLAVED
Result: 4.37

Request: What value of glycan array binding signal (z-score) has been reported for the following binder? AAA (Anguilla anguilla), Q7SIC1 (protein) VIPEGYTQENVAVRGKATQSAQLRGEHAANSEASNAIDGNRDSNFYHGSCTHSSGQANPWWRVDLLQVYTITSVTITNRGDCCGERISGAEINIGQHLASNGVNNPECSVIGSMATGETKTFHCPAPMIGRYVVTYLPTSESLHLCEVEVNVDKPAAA
Result: 1.96

Request: What value of glycan array binding signal (z-score) has been reported for the following binder? HFR-3 (Triticum aestivum) (protein) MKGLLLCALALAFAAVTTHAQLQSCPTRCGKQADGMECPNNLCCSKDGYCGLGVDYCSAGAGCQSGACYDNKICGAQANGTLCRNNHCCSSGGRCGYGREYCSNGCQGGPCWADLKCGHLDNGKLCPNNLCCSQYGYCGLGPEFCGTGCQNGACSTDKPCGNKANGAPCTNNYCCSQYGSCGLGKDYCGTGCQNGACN
Result: 0.598

Others:
Request: What value of glycan array binding signal (z-score) has been reported for the following binder? PFL (Pseudomonas fluorescens) (protein) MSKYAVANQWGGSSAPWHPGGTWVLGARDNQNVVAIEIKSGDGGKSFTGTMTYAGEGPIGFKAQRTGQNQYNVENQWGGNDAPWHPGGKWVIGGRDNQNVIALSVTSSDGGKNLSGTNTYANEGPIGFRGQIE
Result: -0.117

Request: What value of glycan array binding signal (z-score) has been reported for the following binder? MFG-E8 (Homo sapiens), Q08431 (protein) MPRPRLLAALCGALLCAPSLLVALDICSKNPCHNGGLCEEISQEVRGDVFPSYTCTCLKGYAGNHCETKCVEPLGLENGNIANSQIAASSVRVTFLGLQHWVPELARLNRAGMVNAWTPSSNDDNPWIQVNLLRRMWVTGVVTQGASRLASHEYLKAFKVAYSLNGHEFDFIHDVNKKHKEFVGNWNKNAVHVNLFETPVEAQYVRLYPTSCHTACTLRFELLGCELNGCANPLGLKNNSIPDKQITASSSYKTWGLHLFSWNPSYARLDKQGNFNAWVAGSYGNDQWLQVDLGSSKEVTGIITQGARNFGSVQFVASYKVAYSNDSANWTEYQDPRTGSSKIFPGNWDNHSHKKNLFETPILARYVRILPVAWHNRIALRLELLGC
Result: 3.21

Request: What value of glycan array binding signal (z-score) has been reported for the following binder? OVGAL11 (Ovis aries), AAF64320 (protein) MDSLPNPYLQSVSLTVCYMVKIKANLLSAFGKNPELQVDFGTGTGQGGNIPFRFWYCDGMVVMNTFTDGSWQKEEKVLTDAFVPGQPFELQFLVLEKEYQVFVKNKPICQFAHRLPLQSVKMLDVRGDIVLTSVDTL
Result: -0.089
